Target: MAPKAP-K2 (Homo sapiens (Human), UniProt P49137)
Sequence (P49137 whole entry): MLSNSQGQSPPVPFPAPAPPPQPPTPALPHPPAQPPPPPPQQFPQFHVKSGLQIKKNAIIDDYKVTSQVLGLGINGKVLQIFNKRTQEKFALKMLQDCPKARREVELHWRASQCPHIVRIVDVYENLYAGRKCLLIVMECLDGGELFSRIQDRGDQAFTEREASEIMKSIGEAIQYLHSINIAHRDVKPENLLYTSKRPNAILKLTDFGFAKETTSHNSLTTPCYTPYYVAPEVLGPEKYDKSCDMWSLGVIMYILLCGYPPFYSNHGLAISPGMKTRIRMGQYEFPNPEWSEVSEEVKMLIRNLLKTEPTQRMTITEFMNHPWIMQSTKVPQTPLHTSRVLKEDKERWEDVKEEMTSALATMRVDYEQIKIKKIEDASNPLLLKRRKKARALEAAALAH
Assay: KinaseProfiler off-target kinase profiling
Type: biochemical
Details: 10 μM, ATP near Km

>  <Compound>
Cc1c(-c2cnn(C)c2)nn(-c2ccccc2)c1NC(=O)NC1CCOc2cc(F)ccc21 (stereo not shown)

>  <Avg. POC, POC>
122.5

$$$$
>  <Compound>
COCc1ccc2c(c1)C(NC(=O)Nc1c(C)c(-c3cnn(C)c3)nn1-c1ccccc1)COC2 (stereo not shown)

>  <Avg. POC, POC>
117.5

$$$$
>  <Compound>
Cc1c(-c2ccc(=O)n(C)c2)nn(-c2ccccc2)c1NC(=O)NC1CN(CC(F)(F)F)Cc2ccccc21 (stereo not shown)

>  <Avg. POC, POC>
120

$$$$
>  <Compound>
Cc1c(-c2cnn(C)c2)nn(-c2ccccc2)c1NC(=O)N[C@H]1CCCc2ccccc21

>  <Avg. POC, POC>
137.5

$$$$

----------
Target: MKK6 (Homo sapiens (Human), UniProt P52564)
Sequence (P52564 whole entry): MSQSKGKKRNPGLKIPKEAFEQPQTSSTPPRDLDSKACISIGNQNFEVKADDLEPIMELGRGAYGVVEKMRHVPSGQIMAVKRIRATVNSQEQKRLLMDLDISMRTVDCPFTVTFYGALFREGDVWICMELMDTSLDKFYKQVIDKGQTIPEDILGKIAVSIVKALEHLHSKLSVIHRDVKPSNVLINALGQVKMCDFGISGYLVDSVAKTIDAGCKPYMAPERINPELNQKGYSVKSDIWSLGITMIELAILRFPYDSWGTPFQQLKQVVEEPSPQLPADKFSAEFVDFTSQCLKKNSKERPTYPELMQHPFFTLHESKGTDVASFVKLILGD
Test: KinaseProfiler off-target kinase profiling
Assay type: biochemical
Conditions: 10 μM, ATP near Km

>  <Molecule>
Cc1c(-c2ccc(=O)n(C)c2)nn(-c2ccccc2)c1NC(=O)NC1CN(CC(F)(F)F)Cc2ccccc21 (stereo not shown)

>  <Avg. POC>
121.5 POC

$$$$
>  <Molecule>
COCc1ccc2c(c1)C(NC(=O)Nc1c(C)c(-c3cnn(C)c3)nn1-c1ccccc1)COC2 (stereo not shown)

>  <Avg. POC>
134.5 POC

$$$$
>  <Molecule>
Cc1c(-c2cnn(C)c2)nn(-c2ccccc2)c1NC(=O)NC1CCOc2cc(F)ccc21 (stereo not shown)

>  <Avg. POC>
123 POC

$$$$
>  <Molecule>
Cc1c(-c2cnn(C)c2)nn(-c2ccccc2)c1NC(=O)N[C@H]1CCCc2ccccc21

>  <Avg. POC>
130 POC

$$$$

----------
Biological target: UniProt P31751
Sequence (P31751 whole entry): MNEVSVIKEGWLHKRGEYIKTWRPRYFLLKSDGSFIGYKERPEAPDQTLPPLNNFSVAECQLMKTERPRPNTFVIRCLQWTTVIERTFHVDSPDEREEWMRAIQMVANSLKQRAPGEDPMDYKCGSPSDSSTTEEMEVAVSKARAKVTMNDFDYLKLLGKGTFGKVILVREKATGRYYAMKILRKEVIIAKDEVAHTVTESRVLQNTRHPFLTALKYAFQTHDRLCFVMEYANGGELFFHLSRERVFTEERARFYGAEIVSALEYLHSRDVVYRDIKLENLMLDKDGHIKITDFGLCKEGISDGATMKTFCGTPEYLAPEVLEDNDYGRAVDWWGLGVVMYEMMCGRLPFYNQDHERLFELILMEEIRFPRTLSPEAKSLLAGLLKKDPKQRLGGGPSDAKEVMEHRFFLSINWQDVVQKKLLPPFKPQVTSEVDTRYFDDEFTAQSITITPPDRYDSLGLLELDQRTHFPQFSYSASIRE
Experiment: KinaseProfiler off-target kinase profiling
Format: biochemical
Conditions: 10 μM, ATP near Km
Assay Endpoint: Avg. POC

>  <Compound>
COCc1ccc2c(c1)C(NC(=O)Nc1c(C)c(-c3cnn(C)c3)nn1-c1ccccc1)COC2 (stereo not shown)

>  <Assay Endpoint>
Avg. POC

>  <Value>
121 POC

$$$$
>  <Compound>
Cc1c(-c2cnn(C)c2)nn(-c2ccccc2)c1NC(=O)NC1CCOc2cc(F)ccc21 (stereo not shown)

>  <Assay Endpoint>
Avg. POC

>  <Value>
127 POC

$$$$
>  <Compound>
Cc1c(-c2ccc(=O)n(C)c2)nn(-c2ccccc2)c1NC(=O)NC1CN(CC(F)(F)F)Cc2ccccc21 (stereo not shown)

>  <Assay Endpoint>
Avg. POC

>  <Value>
130 POC

$$$$
>  <Compound>
Cc1c(-c2cnn(C)c2)nn(-c2ccccc2)c1NC(=O)N[C@H]1CCCc2ccccc21

>  <Assay Endpoint>
Avg. POC

>  <Value>
132 POC

$$$$

----------
# Avg. POC annotations
Target: Rsk4 (Homo sapiens (Human), UniProt Q9UK32)
Sequence (Q9UK32 whole entry): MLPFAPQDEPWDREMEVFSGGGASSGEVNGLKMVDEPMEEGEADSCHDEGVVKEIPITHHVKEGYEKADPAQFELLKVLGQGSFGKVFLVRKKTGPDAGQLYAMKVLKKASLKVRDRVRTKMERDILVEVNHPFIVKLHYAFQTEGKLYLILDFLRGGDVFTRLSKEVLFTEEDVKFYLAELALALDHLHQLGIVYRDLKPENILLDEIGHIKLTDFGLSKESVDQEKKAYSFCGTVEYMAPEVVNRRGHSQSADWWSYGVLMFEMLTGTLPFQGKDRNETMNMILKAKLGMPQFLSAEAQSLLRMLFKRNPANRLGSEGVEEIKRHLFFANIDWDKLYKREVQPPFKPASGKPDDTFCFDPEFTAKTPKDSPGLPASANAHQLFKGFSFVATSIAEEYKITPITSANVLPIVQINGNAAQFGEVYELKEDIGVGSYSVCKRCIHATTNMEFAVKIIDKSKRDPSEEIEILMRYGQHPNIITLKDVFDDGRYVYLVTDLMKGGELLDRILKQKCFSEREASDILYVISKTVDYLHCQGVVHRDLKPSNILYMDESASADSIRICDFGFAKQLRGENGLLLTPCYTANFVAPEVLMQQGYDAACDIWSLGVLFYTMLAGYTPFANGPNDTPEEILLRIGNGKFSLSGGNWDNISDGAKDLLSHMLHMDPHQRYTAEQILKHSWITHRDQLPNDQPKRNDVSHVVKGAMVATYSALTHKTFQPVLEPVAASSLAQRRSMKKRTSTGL
Experiment: KinaseProfiler off-target kinase profiling
Format: biochemical
Details: 10 μM, ATP near Km
Assay Endpoint: Avg. POC (POC)

>  <Molecule>
Cc1c(-c2cnn(C)c2)nn(-c2ccccc2)c1NC(=O)NC1CCOc2cc(F)ccc21 (stereo not shown)

>  <Value>
101

$$$$
>  <Molecule>
Cc1c(-c2cnn(C)c2)nn(-c2ccccc2)c1NC(=O)N[C@H]1CCCc2ccccc21

>  <Value>
140

$$$$
>  <Molecule>
COCc1ccc2c(c1)C(NC(=O)Nc1c(C)c(-c3cnn(C)c3)nn1-c1ccccc1)COC2 (stereo not shown)

>  <Value>
95

$$$$
>  <Molecule>
Cc1c(-c2ccc(=O)n(C)c2)nn(-c2ccccc2)c1NC(=O)NC1CN(CC(F)(F)F)Cc2ccccc21 (stereo not shown)

>  <Value>
99.5

$$$$

----------
Target: GRK6 (Homo sapiens (Human))
Sequence (P43250 whole entry): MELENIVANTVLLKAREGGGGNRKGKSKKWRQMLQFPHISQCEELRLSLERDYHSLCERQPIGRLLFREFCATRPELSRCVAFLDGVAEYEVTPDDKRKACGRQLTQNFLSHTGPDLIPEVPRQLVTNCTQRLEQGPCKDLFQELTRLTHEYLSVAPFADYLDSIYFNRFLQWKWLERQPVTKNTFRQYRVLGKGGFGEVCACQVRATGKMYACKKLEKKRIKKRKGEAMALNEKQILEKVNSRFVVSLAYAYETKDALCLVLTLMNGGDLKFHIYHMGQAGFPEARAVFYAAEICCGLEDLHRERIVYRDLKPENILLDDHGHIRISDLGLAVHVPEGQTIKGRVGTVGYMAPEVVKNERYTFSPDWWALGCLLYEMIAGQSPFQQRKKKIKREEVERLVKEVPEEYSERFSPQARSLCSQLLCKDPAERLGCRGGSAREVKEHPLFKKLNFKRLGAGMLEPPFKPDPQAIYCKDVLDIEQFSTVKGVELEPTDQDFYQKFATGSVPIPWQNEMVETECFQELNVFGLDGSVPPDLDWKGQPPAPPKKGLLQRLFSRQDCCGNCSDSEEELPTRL
Assay: KinaseProfiler off-target kinase profiling
Type: biochemical
Settings: 10 μM, ATP near Km
# Avg. POC annotations

>  <Molecule>
Cc1c(-c2cnn(C)c2)nn(-c2ccccc2)c1NC(=O)N[C@H]1CCCc2ccccc21 [Example 2]

>  <Avg. POC, POC>
103.5

$$$$
>  <Molecule>
Cc1c(-c2cnn(C)c2)nn(-c2ccccc2)c1NC(=O)NC1CCOc2cc(F)ccc21 (stereo not shown) [Example 12]

>  <Avg. POC, POC>
103

$$$$
>  <Molecule>
COCc1ccc2c(c1)C(NC(=O)Nc1c(C)c(-c3cnn(C)c3)nn1-c1ccccc1)COC2 (stereo not shown) [Example 32]

>  <Avg. POC, POC>
101

$$$$
>  <Molecule>
Cc1c(-c2ccc(=O)n(C)c2)nn(-c2ccccc2)c1NC(=O)NC1CN(CC(F)(F)F)Cc2ccccc21 (stereo not shown) [Example 26]

>  <Avg. POC, POC>
100.5

$$$$

----------
# IC50 annotations
Molecular target: His-tagged recombinant human TrkA (Homo sapiens (Human))
Sequence (P04629 440-796): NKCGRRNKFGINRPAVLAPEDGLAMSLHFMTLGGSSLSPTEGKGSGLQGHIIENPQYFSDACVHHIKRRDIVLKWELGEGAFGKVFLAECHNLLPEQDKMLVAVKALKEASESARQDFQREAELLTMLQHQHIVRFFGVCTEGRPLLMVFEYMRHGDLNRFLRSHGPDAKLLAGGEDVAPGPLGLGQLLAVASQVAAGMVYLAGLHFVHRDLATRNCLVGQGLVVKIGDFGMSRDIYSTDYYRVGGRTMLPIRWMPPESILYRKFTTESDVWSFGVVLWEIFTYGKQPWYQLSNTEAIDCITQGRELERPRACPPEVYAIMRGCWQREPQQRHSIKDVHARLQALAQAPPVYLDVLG
Assay: TrkA LanthaScreen Eu Kinase Binding Assay
Conditions: averaged IC50; TR-FRET binding, 60 min, 22° C.; read-out: TrkA Enzyme IC50
Where a name gives a salt, the structure may show the parent alone.

>  <Molecule>
CCOc1nn(-c2ccccc2)c(NC(=O)NC2CCc3ccccc32)c1C (stereo not shown)

>  <IC50>
100 to 1000 nM

$$$$
>  <Molecule>
Cc1c(-c2cnn(C)c2)nn(-c2ccccc2)c1NC(=O)N[C@@H]1c2ccc(F)cc2C(C)(C)C[C@H]1O

>  <IC50>
< 100 nM

$$$$
>  <Molecule>
Cc1c(-c2cnn(C)c2)nn(-c2ccccc2)c1NC(=O)NC1CN(CC(F)(F)F)C2(CC2)c2ccccc21 (stereo not shown) [Example 136, trifluoroacetate]

>  <IC50>
< 100 nM

$$$$
>  <Molecule>
Cc1c(-c2cnn(C)c2)nn(-c2ccccc2)c1NC(=O)N[C@H]1CCCc2cc(F)ccc21

>  <IC50>
< 100 nM

$$$$
>  <Molecule>
Cc1c(-c2cnn(C)c2)nn(-c2ccccc2)c1NC(=O)Nc1cn(CC(F)(F)F)c(=O)c2ccccc12

>  <IC50>
100 to 1000 nM

$$$$
>  <Molecule>
Cc1c(-c2cnn(C)c2)nn(-c2ccccc2)c1NC(=O)NC1COCc2ccc(Br)cc21 (stereo not shown)

>  <IC50>
< 100 nM

$$$$
>  <Molecule>
CO[C@H]1[C@@H](O)[C@H](NC(=O)Nc2c(C)c(-c3ccc(=O)n(C)c3)nn2-c2ccccc2)c2ccccc2C1(C)C

>  <IC50>
< 100 nM

$$$$

----------
# Avg. POC annotations
Molecular target: DCAMKL2 (Homo sapiens (Human))
Sequence (Q8N568 whole entry): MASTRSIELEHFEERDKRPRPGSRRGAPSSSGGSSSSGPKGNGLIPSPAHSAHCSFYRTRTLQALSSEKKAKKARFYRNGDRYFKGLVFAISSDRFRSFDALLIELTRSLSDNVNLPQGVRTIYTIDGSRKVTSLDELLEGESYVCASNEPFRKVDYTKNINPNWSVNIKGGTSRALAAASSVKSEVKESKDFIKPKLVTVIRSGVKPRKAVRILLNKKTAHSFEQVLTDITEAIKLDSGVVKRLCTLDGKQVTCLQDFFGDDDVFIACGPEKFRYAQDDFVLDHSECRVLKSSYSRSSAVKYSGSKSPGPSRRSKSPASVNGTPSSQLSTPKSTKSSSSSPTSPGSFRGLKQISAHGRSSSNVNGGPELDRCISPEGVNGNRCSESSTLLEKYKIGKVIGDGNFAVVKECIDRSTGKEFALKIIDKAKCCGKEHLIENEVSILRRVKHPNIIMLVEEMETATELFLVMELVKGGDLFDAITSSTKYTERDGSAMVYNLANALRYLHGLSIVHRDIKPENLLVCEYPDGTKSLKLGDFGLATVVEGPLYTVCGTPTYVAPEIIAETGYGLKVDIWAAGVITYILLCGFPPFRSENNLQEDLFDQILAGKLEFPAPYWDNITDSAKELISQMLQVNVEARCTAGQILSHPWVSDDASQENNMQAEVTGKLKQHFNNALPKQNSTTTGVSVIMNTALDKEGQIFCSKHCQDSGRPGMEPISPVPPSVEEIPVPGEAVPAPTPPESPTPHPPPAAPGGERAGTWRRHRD
Experiment: KinaseProfiler off-target kinase profiling
Assay type: biochemical
Details: 10 μM, ATP near Km

>  <Compound>
Cc1c(-c2cnn(C)c2)nn(-c2ccccc2)c1NC(=O)N[C@H]1CCCc2ccccc21 [Example 2]

>  <Avg. POC [POC]>
157.5

$$$$
>  <Compound>
Cc1c(-c2cnn(C)c2)nn(-c2ccccc2)c1NC(=O)NC1CCOc2cc(F)ccc21 (stereo not shown) [Example 12]

>  <Avg. POC [POC]>
169

$$$$
>  <Compound>
COCc1ccc2c(c1)C(NC(=O)Nc1c(C)c(-c3cnn(C)c3)nn1-c1ccccc1)COC2 (stereo not shown) [Example 32]

>  <Avg. POC [POC]>
146

$$$$
>  <Compound>
Cc1c(-c2ccc(=O)n(C)c2)nn(-c2ccccc2)c1NC(=O)NC1CN(CC(F)(F)F)Cc2ccccc21 (stereo not shown) [Example 26]

>  <Avg. POC [POC]>
135

$$$$

----------
Target: CK2alpha2 (Homo sapiens (Human), UniProt P19784)
Sequence (P19784 whole entry): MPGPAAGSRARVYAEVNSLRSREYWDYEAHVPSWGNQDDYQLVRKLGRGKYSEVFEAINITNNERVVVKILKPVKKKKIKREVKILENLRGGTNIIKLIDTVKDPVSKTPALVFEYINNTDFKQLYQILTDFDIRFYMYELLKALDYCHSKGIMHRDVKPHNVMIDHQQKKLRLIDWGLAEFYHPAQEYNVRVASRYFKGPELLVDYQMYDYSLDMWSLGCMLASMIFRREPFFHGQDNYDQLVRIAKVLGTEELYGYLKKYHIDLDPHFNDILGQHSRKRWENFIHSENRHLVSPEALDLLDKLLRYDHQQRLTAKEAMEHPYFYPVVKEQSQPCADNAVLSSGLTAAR
Assay: KinaseProfiler off-target kinase profiling
Format: biochemical
Conditions: 10 μM, ATP near Km

>  <Molecule>
Cc1c(-c2ccc(=O)n(C)c2)nn(-c2ccccc2)c1NC(=O)NC1CN(CC(F)(F)F)Cc2ccccc21 (stereo not shown)

>  <Avg. POC [POC]>
114

$$$$
>  <Molecule>
COCc1ccc2c(c1)C(NC(=O)Nc1c(C)c(-c3cnn(C)c3)nn1-c1ccccc1)COC2 (stereo not shown)

>  <Avg. POC [POC]>
104

$$$$
>  <Molecule>
Cc1c(-c2cnn(C)c2)nn(-c2ccccc2)c1NC(=O)NC1CCOc2cc(F)ccc21 (stereo not shown)

>  <Avg. POC [POC]>
107.5

$$$$
>  <Molecule>
Cc1c(-c2cnn(C)c2)nn(-c2ccccc2)c1NC(=O)N[C@H]1CCCc2ccccc21

>  <Avg. POC [POC]>
125

$$$$

----------
Molecular target: TLK2 (Homo sapiens (Human), UniProt Q86UE8)
Sequence (Q86UE8 whole entry): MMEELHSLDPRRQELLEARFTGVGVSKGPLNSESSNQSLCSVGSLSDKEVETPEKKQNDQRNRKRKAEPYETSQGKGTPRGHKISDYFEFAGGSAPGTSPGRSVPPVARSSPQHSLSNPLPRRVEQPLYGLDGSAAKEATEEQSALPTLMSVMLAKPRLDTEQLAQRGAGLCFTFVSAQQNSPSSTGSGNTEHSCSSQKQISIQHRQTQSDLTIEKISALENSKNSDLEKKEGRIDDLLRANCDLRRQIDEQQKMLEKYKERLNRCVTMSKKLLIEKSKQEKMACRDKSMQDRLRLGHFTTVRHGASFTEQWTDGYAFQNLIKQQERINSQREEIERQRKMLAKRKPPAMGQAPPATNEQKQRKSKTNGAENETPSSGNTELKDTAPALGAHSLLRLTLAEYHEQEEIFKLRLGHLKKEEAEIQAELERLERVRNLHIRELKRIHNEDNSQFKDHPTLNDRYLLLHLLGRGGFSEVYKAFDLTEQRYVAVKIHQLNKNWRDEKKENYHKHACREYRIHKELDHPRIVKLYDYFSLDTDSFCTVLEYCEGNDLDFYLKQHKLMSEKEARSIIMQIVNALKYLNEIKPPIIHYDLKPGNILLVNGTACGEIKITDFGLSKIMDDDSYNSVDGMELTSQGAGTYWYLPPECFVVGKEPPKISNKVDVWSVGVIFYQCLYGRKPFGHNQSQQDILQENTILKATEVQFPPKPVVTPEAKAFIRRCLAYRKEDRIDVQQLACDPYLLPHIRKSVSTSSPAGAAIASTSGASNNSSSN
Experiment: KinaseProfiler off-target kinase profiling
Assay type: biochemical
Details: 10 μM, ATP near Km

>  <Compound>
Cc1c(-c2cnn(C)c2)nn(-c2ccccc2)c1NC(=O)N[C@H]1CCCc2ccccc21

>  <Avg. POC, POC>
100

$$$$
>  <Compound>
Cc1c(-c2cnn(C)c2)nn(-c2ccccc2)c1NC(=O)NC1CCOc2cc(F)ccc21 (stereo not shown)

>  <Avg. POC, POC>
98

$$$$
>  <Compound>
Cc1c(-c2ccc(=O)n(C)c2)nn(-c2ccccc2)c1NC(=O)NC1CN(CC(F)(F)F)Cc2ccccc21 (stereo not shown)

>  <Avg. POC, POC>
97

$$$$
>  <Compound>
COCc1ccc2c(c1)C(NC(=O)Nc1c(C)c(-c3cnn(C)c3)nn1-c1ccccc1)COC2 (stereo not shown)

>  <Avg. POC, POC>
92

$$$$
